B1: FAM164A (parent)
chain: YDPDYIQCPYCQRRFNENAADRHI

- Variants of: B1
- measurement_protocol: protein stability index of a GFP-peptide fusion (GPS, HEK-293T) (PSI 1-6); higher = more stable;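 also: lentivirally expressed fusions sorted by FACS into six bins by GFP to DsRed ratio, PSI derived from sequencing read proportions per bin multiplied by bin number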
- setup_conditions: c terminus: a fixed tail appended
result_type: protein stability index

Below, 5 variants whose answers are already recorded.
[[record]]
mutant_code = "I24S"
result_type = "protein stability index"
recorded_measurement = 4.56

[[record]]
mutant_code = "P9R"
result_type = "protein stability index"
recorded_measurement = 2.58

[[record]]
mutant_code = "D21Y"
result_type = "protein stability index"
recorded_measurement = 4.03

[[record]]
mutant_code = "A19Q"
result_type = "protein stability index"
recorded_measurement = 4.37

[[record]]
mutant_code = "C11T"
result_type = "protein stability index"
recorded_measurement = 3.72


Returns the measured protein stability index for the input variant. Input: Q7L
3.48

Returns the measured protein stability index for the input variant. Input: Q12Y
4.3

Returns the measured protein stability index for the input variant. Input: P3E
4.63

Returns the measured protein stability index for the input variant. Input: N16F
4.49

Returns the measured protein stability index for the input variant. Input: N18T
4.11

Returns the measured protein stability index for the input variant. Input: N18Q
4.76

Returns the measured protein stability index for the input variant. Input: C8Y
3.43

Returns the measured protein stability index for the input variant. Input: Y1D
4.86

Returns the measured protein stability index for the input variant. Input: A19L
4.03

Returns the measured protein stability index for the input variant. Input: E17V
5.04

Returns the measured protein stability index for the input variant. Input: Y10M
3.53

Returns the measured protein stability index for the input variant. Input: D4G
4.28

Returns the measured protein stability index for the input variant. Input: N16C
4.37

Returns the measured protein stability index for the input variant. Input: D4N
4.22

Returns the measured protein stability index for the input variant. Input: Y5D
4.24

Returns the measured protein stability index for the input variant. Input: A19R
4.11

Returns the measured protein stability index for the input variant. Input: Y10D
3.36

Returns the measured protein stability index for the input variant. Input: I24W
2.89
